# Tested on: mice
# measurement-notes: Ataxia in mice just before CHCl3 challenge, oral (Table I)
# Assay type: in vivo
# test-conditions: LD0.1 dose, 20 min
measured-quantity: Proportion of mice in each group having ataxia just before CHCl3 challenge

[[record]]
compound = "CCN(CC)CC(=O)Nc1c(C)cccc1C [lidocaine, 2-diethylamino-2',6'-acetoxylidide]"
val = "9/10"

[[record]]
compound = "CCN(CC)CCNC(=O)c1ccc(N)cc1 [PROCAINAMIDE]"
val = "0/10"

[[record]]
compound = "Cc1cccc(C)c1NC(=O)C(C)N (racemic) [2-amino-2',6'-propionoxylidide]"
val = "10/10"

[[record]]
compound = "C=C[C@H]1C[N@@]2CC[C@H]1C[C@@H]2[C@@H](O)c1ccnc2ccc(OC)cc12 [QUINIDINE]"
val = "0/10"


----------
Below: a set of entries, each annotated with reported Proportion of mice in each group protected against fibrillation at LD0.1.
# measurement-notes: Antifibrillatory effect in mice: protection against chloroform-induced ventricular fibrillation, oral (Table I)
# Type: in vivo, female Swiss albino mice (HAM/ICR)
# test-conditions: 20 min before CHCl3 challenge
measured-quantity: Proportion of mice in each group protected against fibrillation at LD0.1

[[record]]
compound = "C=C[C@H]1C[N@@]2CC[C@H]1C[C@@H]2[C@@H](O)c1ccnc2ccc(OC)cc12"
val = "10/10"

[[record]]
compound = "CCN(CC)CCNC(=O)c1ccc(N)cc1 [PROCAINAMIDE]"
val = "0/10"

[[record]]
compound = "Cc1cccc(C)c1NC(=O)C(C)N (racemic) [2-amino-2',6'-propionoxylidide]"
val = "9/10"

[[record]]
compound = "CCN(CC)CC(=O)Nc1c(C)cccc1C [lidocaine, 2-diethylamino-2',6'-acetoxylidide]"
val = "10/10"

